# testSummary: Fluidity test (gel formation ability) of peptide samples
# Assay type: physicochemical
# conditionNotes: 1.0% by weight in D-MEM (44 mM NaHCO3, pH 7.4), 37°C, CO2 5%, 48 hours
endpointName: gelling (loss of fluidity after vertical flipping of the microtube)

Example sequences with recorded gelling (loss of fluidity after vertical flipping of the microtube):
| primarySequence | resultValue |
| --- | --- |
| RVDVRVRVDVR | did not gel |
| RVRVDVRVDVR | did not gel |
| RIDARMRADMR | gelled |
| RMDARIDARIR | gelled |
| RIRARMDADIR | gelled |

# return recorded gelling (loss of fluidity after vertical flipping of the microtube) for input RIRGDIRADIR
gelled

# return recorded gelling (loss of fluidity after vertical flipping of the microtube) for input RMDADMRARIR
gelled

# return recorded gelling (loss of fluidity after vertical flipping of the microtube) for input RVDVDVRVRVR
did not gel

# return recorded gelling (loss of fluidity after vertical flipping of the microtube) for input RIRADMRGDIR
gelled

# return recorded gelling (loss of fluidity after vertical flipping of the microtube) for input RIDARMRADIR
gelled

----------
Here the recorded G' (Pa) is given for each entry.
# testSummary: Rheological property of the peptide gel (rheometer, storage elastic modulus G′ and loss elastic modulus G″)
# Type: physicochemical
# conditionNotes: DMEM (pH 7.4), peptide concentration 1.0% by weight, 20°C

| primarySequence | resultValue |
| --- | --- |
| RIDARMRADIR | 21,300 Pa |

# return recorded G' (Pa) for input RIDADMRARIR
47,500 Pa

# return recorded G' (Pa) for input RIRADMRADIR
4,830 Pa

----------
# testSummary: Fluidity test (gel formation ability) of peptide samples
# Assay type: physicochemical
# conditionNotes: 1.0% by weight in D-MEM (44 mM NaHCO3, pH 7.4), 37°C, CO2 5%, 48 hours
endpointName: gelling (loss of fluidity after vertical flipping of the microtube)

| primarySequence | resultValue |
| --- | --- |
| RIRADMDARIR | gelled |
| RVRVRVDVDVR | did not gel |
| RIRGDMRADIR | gelled |
| RIDADMRARIR | gelled |
| RVRVDVDVRVR | did not gel |
| RIRGDMRGDIR | gelled |
| RIRADIRGDIR | gelled |
| RIRADMRADIR | gelled |
| RVDVRVDVRVR | did not gel |
| RIRGDIRGDIR | gelled |

# return recorded gelling (loss of fluidity after vertical flipping of the microtube) for input RIDARMDARIR
gelled

# return recorded gelling (loss of fluidity after vertical flipping of the microtube) for input RIRADIRADMR
gelled

----------
Here the recorded G' (Pa) is given for each entry.
# testSummary: Rheological property of the peptide gel (rheometer, storage elastic modulus G′ and loss elastic modulus G″)
# Format: physicochemical
# conditionNotes: DMEM (pH 7.4), peptide concentration 1.0% by weight, 20°C

Example sequences with recorded G' (Pa):
| primarySequence | G' (Pa) |
| --- | --- |
| RIRARMDADIR | 6,500 Pa |
| RIRGDMRGDIR | 47,800 Pa |

Now for the sequence whose G' (Pa) we want.
# return recorded G' (Pa) for input RIDARMDARIR
58,300 Pa
